target.or.test.system: LXR β LBD protein (Homo sapiens (Human), UniProt P55055)
Sequence (P55055 222-460 limits assumed): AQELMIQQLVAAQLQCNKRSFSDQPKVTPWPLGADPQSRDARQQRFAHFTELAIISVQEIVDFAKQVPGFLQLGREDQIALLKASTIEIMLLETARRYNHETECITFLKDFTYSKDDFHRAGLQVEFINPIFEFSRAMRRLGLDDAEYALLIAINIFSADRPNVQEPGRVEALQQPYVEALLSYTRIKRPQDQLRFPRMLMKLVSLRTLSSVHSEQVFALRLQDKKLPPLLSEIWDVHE
assay.explanation: biochemical
Assay type: binding
experimental.context: read-out: LXRβ Binding Ki
Provide the recorded Ki for the entries that follow.
One number for each entry, in nM.

CCOC(=O)c1cnc(N2CCN(c3ccc(-c4nnc(C)s4)c(S(C)(=O)=O)c3)C[C@H]2C(C)C)nc1C(F)(F)F [9-13] : 171
CC(C)[C@@H]1CN(c2ccc(F)c(S(C)(=O)=O)c2)CCN1c1nc2ccc(C#N)cc2s1 [7-53] : 27

Proceed to the following item.
Field Ki (entry CC(C)[C@H]1CN(c2ccc(CO)c(S(C)(=O)=O)c2)CCN1C[C@@H]1CC[C@@H](C(F)(F)F)OC1 [Cpd No 49-3] ) reads 17

###

target.or.test.system: Gal4 DNA binding domain fused to the LBD of LXRβ in HEK293 cells (Homo sapiens (Human), UniProt P55055)
Sequence (P55055 222-460 limits assumed): as above
assay.explanation: cell-based
measured.property: pEC50
One number for each entry, as −log10 of the molar value.

CC[C@@H](O)c1cnc(N2CCN(c3ccc(F)c(S(C)(=O)=O)c3)C[C@H]2C(C)C)nc1C(F)(F)F (single isomer, unassigned) : 7.31

Please state, for each entry, its recorded pEC50.
1. CNS(=O)(=O)c1cc(N2CCN(c3ncc(C(C)O)c(C(F)(F)F)n3)[C@H](C(C)C)C2)ccc1F (stereo partly shown)
2. CC(C)[C@H]1CN(c2ccc(CO)c(S(C)(=O)=O)c2)CCN1C[C@H]1CC[C@@H](C(F)(F)F)OC1
3. CC(C)c1ccc(CN2CCN(c3cccc(S(C)(=O)=O)c3)CC2c2ccccc2)cn1 (stereo not shown)
4. CC(C)[C@@H]1CN(c2ccc(CO)c(S(C)(=O)=O)c2)CCN1c1nc(C(F)(F)F)c(C(=O)N(C)C)s1
5. CC(C)[C@@H]1CN(c2cc(S(C)(=O)=O)c(C(N)=O)cc2Cl)CCN1c1nccc(C(F)(F)F)n1

1. 7.23
2. 6.96
3. 5.23
4. 6.98
5. 5.87

###

target.or.test.system: Gal4 DNA binding domain fused to the LBD of LXRα in HEK293 cells (Homo sapiens (Human))
assay.explanation: LXR luciferase transcriptional reporter gene assay, agonist mode, LXRα
Assay type: cell-based
experimental.context: agonist mode; read-out: Cell LXRα EC50
Provide the recorded pEC50 for the entries that follow.
One number for each entry, as −log10 of the molar value.

Check out these entries, answers already filled in.
CC(C)COC(=O)N1CCN(c2cccc(S(C)(=O)=O)c2)C[C@H]1C(C)C [5-7] : 5.72
CC(C)[C@@H]1CN(c2cccc(S(N)(=O)=O)c2)CCN1c1nccc(C(F)(F)F)n1 [7-60] : 6.61
CCOC(=O)c1csc(-c2ccc(N3CCN(C(=O)OC(C)(C)C)[C@H](C(C)C)C3)cc2S(C)(=O)=O)n1 [2-4] : 5.37
CS(=O)(=O)c1cccc(N2CCN(Cc3ccc(C(F)(F)F)c(Cl)c3)[C@H](Cc3ccccc3)C2)c1 [46-33] : 5.63
CC(C)[C@@H]1CN(c2ccc(CO)c(S(C)(=O)=O)c2)CCN1c1ncc(C(C)(C)O)c(C(F)(F)F)n1 [10-7] : 5.82

Please state, for each entry, its recorded pEC50.
1. CC1(c2ccccc2)CN(c2cccc(S(C)(=O)=O)c2)CCN1Cc1ccc(C(F)(F)F)nc1 (stereo not drawn) [46-49]
2. CS(=O)(=O)c1cccc(N2CCN(Cc3ccc(C(F)(F)F)cc3)[C@@H](c3ccc(F)cc3)C2)c1 [46-24]
3. CS(=O)(=O)c1cccc(N2CCN(Cc3ccc(C(F)(F)F)c(Cl)c3)C(C3CCCCC3)C2)c1 (stereo not drawn) [46-27]
4. C[C@]1(c2ccccc2)CN(c2cccc(S(C)(=O)=O)c2)CCN1Cc1ccc(C(F)(F)F)c(Cl)c1 (single isomer, unassigned) [46-34]
5. CC(C)(C)OC(=O)N1CCN(c2cccc(S(C)(=O)=O)c2)C[C@H]1Cc1ccccc1 [1-8]
6. COC(=O)[C@@H]1CN(c2cccc(S(C)(=O)=O)c2)CCN1C(=O)OC(C)(C)C [1-4]

1. 5.49
2. 5.57
3. 5.96
4. 5.68
5. 5.94
6. 4.85

Please state, for each entry, its recorded pEC50.
1. CC(C)[C@@H]1CN(c2cc(S(C)(=O)=O)c(C(N)=O)cc2Cl)CCN1c1nccc(C(F)(F)F)n1 [4-4]
2. CC(C)[C@@H]1CN(c2ccc(F)c(S(C)(=O)=O)c2)CCN1c1cncc(C(F)(F)F)n1 [7-45]
3. CC(O)c1cnc(N2CCN(c3ccc(F)c(S(C)(=O)=O)c3)C[C@H]2c2ccc(F)cc2)nc1C(F)(F)F (stereo partly drawn) [12-9]
4. CC(C)[C@@H]1CN(c2cc(S(C)(=O)=O)c(CO)cc2F)CCN1c1ncc(C(N)=O)c(C(F)(F)F)n1 [17-29]

5.54
6.42
5.31
5.71

###

target.or.test.system: Gal4 DNA binding domain fused to the LBD of LXRα in HEK293 cells (Homo sapiens (Human), UniProt Q13133)
Sequence (Q13133 209-447): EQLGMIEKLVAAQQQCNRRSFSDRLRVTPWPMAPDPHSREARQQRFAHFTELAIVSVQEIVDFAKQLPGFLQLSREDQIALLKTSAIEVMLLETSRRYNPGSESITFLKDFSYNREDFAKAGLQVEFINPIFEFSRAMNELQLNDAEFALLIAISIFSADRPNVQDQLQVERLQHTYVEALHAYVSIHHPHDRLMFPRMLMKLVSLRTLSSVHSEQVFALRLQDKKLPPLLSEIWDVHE
assay.explanation: LXR luciferase transcriptional reporter gene assay, agonist mode, LXRα
Format: cell-based
measured.property: Cell LXRα efficacy

Check out these entries, answers already filled in.
CS(=O)(=O)c1cccc(N2CCN(CC3CCN(CC(F)(F)F)CC3)[C@@H](c3ccccc3Cl)C2)c1 (single isomer, unassigned) [48-55] : 2129 (42) %
CS(=O)(=O)c1cccc(N2CCN(CC3(F)CCN(CC(F)(F)F)CC3)[C@@H](c3ccc(F)cc3)C2)c1 [48-57] : 4500 (37) %
CS(=O)(=O)c1cccc(N2CCN(C[C@H]3CC[C@H](C(F)(F)F)CC3)[C@@H](c3ccccc3Cl)C2)c1 (single isomer, unassigned) [48-46] : 1908 (35) %
CS(=O)(=O)c1cccc(N2CCN(Cc3ccc(C(F)(F)F)c(Br)c3)C(c3ccccc3)C2)c1 (centres unmarked) [46-37] : 3451 (52) %

Please state, for each entry, its recorded Cell LXRα efficacy.
1. CS(=O)(=O)c1cccc(N2CCN(Cc3ccc(C(F)(F)F)nc3)C(c3cccc(Cl)c3)C2)c1 (centres unmarked) [46-55]
2. Cc1noc(-c2ccc(N3CCN(c4ncc(CO)c(C(F)(F)F)n4)[C@H](C(C)C)C3)cc2S(C)(=O)=O)n1 [11-10]
3. CC(C)[C@@H]1CN(c2ccc(CO)c(S(C)(=O)=O)c2)CCN1c1nc(C(F)(F)F)c(C(C)(C)O)o1 [26-2]
4. COC(=O)c1ccc(N2CCN(Cc3ccc(C(F)(F)F)c(Cl)c3)C(c3ccccc3)C2)cc1S(C)(=O)=O (centres unmarked) [46-38]
5. CS(=O)(=O)c1cc(F)cc(N2CCN(Cc3ccc(C(F)(F)F)nc3)C(c3ccccc3)C2)c1 (centres unmarked) [46-53]
6. CC(C)[C@@H]1CN(c2ccc(F)c(S(C)(=O)=O)c2)CCN1c1ncc(C(F)(F)F)c(C#N)n1 [Cpd No 43-1]

1: 2773 (7) %; 2: 6291 (28) %; 3: 2233 (99) %; 4: 1088 (25) %; 5: 11138 (23) %; 6: 136 (101) %

###

target.or.test.system: LXR α LBD protein (Homo sapiens (Human), UniProt Q13133)
Sequence (Q13133 209-447): as above
assay.explanation: Human LXRα coactivator recruitment FRET assay, agonist mode
Format: biochemical
experimental.context: agonist mode
measured.property: EC50 (µM)
One number for each entry, in µM.

Check out these entries, answers already filled in.
CS(=O)(=O)c1cc(N2CCN(C[C@H]3CC[C@H](C(F)(F)F)CC3)[C@H](c3ccccc3)C2)ccc1C(N)=O (single isomer, unassigned) [17-36] : 0.808
CC(C)(O)c1ccc(CN2CCN(c3cccc(S(C)(=O)=O)c3)C[C@@H]2c2ccccc2)cc1 [10-12] : 1.37
CS(=O)(=O)c1cccc(N2CCN(Cc3ccc(C(F)(F)F)nc3)C(c3ccc(F)cc3)C2)c1 (stereo not drawn) [46-51] : 2.3

Please state, for each entry, its recorded EC50.
1. CS(=O)(=O)c1cccc(N2CCN(C[C@H]3CC[C@H](C(F)(F)F)CC3)[C@@H](c3ccccc3)C2)c1 (single isomer, unassigned) [48-33]
2. CS(=O)(=O)c1cccc(N2CCN(CC3CCC(F)(F)CC3)[C@@H](c3ccccc3)C2)c1 [48-13]

4.87
0.632

Please state, for each entry, its recorded EC50.
1. CC(C)[C@@H]1CN(c2ccc(C#N)c(S(C)(=O)=O)c2)CCN1C(=O)OC(C)(C)C [Cpd No 3-1]
2. CC(C)[C@@H]1CN(c2cccc(S(C)(=O)=O)c2)CCN1C(=O)OC(C)(C)C [1-1]
3. Cc1nc(N2CCN(c3ccc(F)c(S(C)(=O)=O)c3)C[C@H]2C(C)C)ncc1Cl [7-12]
4. CC(C)[C@@H]1CN(c2ccc(C(N)=O)c(S(C)(=O)=O)c2)CCN1c1nccc(C(F)(F)F)n1 [4-2]
5. CC(C)[C@@H]1CN(c2cccc(S(C)(=O)=O)c2)CCN1C(=O)OCC(C)(C)C [5-6]
6. COC(=O)[C@@H]1CN(c2cccc(S(C)(=O)=O)c2)CCN1C(=O)OC(C)(C)C [1-4]

1. 18
2. 0.409
3. 0.677
4. 0.293
5. 0.234
6. 13.5

Field EC50 (entry CS(=O)(=O)c1cccc(N2CCN(Cc3ccc(C(F)(F)F)nc3)[C@H](c3ccccc3Cl)C2)c1 (single isomer, unassigned) [46-56] ) reads 27
